This collection of values is drawn from patent US20240400689A1.

targetOfAssay: T1, human CD276 protein (human, UniProt Q5ZPR3 29-534)
T1 construct: whole, on cells; for SKOV3 and the other cancer lines the protein is the cells' own; also called B7-H3; B7H3
T1 sequence (looked up): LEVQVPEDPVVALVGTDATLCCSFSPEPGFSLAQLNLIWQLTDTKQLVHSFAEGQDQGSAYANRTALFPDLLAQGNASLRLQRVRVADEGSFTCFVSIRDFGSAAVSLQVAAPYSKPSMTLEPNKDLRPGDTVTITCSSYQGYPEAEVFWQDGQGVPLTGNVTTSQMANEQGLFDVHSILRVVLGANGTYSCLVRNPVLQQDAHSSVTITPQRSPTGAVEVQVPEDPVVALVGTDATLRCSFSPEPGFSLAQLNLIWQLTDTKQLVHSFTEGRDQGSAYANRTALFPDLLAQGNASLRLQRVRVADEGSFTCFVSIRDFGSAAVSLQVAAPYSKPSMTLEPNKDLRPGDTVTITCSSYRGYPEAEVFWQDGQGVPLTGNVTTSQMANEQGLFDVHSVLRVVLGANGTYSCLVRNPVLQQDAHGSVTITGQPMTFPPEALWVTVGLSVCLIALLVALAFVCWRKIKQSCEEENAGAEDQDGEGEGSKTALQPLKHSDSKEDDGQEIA
measurementNotes: FACS on SKOV3 cells
readout: MFI (Max)
Number only, please.

Below, each entry is followed by its recorded MFI (Max) result.
# binder, result
records = [
    ("30-C7-C11-D4 (human IgG1 chimeric antibody) (antibody, V domains shown, human IgG1 chimeric antibody of the mouse clone) VH: EVQLVESGPGLVKPSQSLSLTCTVTGYSITSDYAWNWIRQFPGNKLEWMGYISHSGSTSYNPSLKSRISITRDTSKNQFFLQLNSVTTEDTATYYCARSLGRRWYFDVWGAGTTVTVSS VL: DIVMTQSPSSLAMSVGQKVTLSCKSSQSLLNSSTQKNYLAWYQQKPGQSPKLLVYFASTRDSGVPDRFIGSGSGTEFTLTISSVQAEDLADYFCQQHYIIPFTFGAGTKLEIK", 4270),
    ("16-C6-F7-F5 (human IgG1 chimeric antibody) (antibody, V domains shown, human IgG1 chimeric antibody of the mouse clone) VH: QIQLVQSGPEVKKPGETVKISCKASGYTFTKYGINWVKQAPGEGLKWMGWIWTYTGKPTYGDDFKGRFAFSLETSASTAYLQISDLKIEDMATYFCARDDGYYYTMNYWGQGTSVTVSS VL: DIVMTQTPLSLPVSLGDQASISCRSSQSLLHTNGDTYLHWYLQKAGQPPKLLIYKVSNRFSGVPDRFSGSGSGTDFTLKISRVEAEDLGVYFCSQSTHIPWTFGGGTKLEIK", 5350),
]

Task item: Quick one: MFI (Max) for 18-F9-D8-G7 (human IgG1 chimeric antibody) (antibody, V domains shown, human IgG1 chimeric antibody of the mouse clone) VH: EVQLQQSGPELVRPGVSVKISCKGSGYTFTDYAMHWVKQSHAQSLEWIGIINTYSGDTNYNQKFKGKATMTVDKSSSTAYMGLARLTSEDSAIFYCARGGGNYPYWYFDVWGAGTTVTVSS VL: ENVLTQSPAIMSASPGEKVTMTCRASSSVSSSYLHWYQQKSGDSPKLWIYSTSNLASGVPARFSGSGSGTSYSLTISSVEAEDAATYYCQQFSVYPLTFGAGTKLEIK ?
Reply: 4610
